- EXPERIMENT NOTES: Aqueous solubility of the drugs
- Assay type: physicochemical
- PARTICULARS: water, pH 6.8, aqueous buffer; read-out: solubility in water
MEASUREMENT NAME: solubility

- COMPOUND: "CC(C)(C)c1ccc2c(c1)CC[C@H]2NC(=O)Nc1cccc2[nH]ncc12 [ABT-102]"
  MEASUREMENT NAME: "solubility"
  MEAS VALUE: "~0.0573 µg/mL"

---

- EXPERIMENT NOTES: Screening of carriers for solubility of ABT-869 (Example 1)
- Assay type: physicochemical
- PARTICULARS: oil or lipid, thermodynamic from solid; carrier 10% ethanol, 90% Phosal 50 PG; room temperature; read-out: Solubility (S)

- MOLECULE: "Cc1ccc(F)c(NC(=O)Nc2ccc(-c3cccc4[nH]nc(N)c34)cc2)c1"
  solubility: "50 to 67 mg/mL"

---

- EXPERIMENT NOTES: Screening of carriers for solubility of ABT-869 (Example 1)
- Assay type: physicochemical
- PARTICULARS: oil or lipid, thermodynamic from solid; carrier 10% ethanol, 90% Phosal 53 MCT; room temperature; read-out: Solubility (S)
MEASUREMENT NAME: solubility

- COMPOUND: "Cc1ccc(F)c(NC(=O)Nc2ccc(-c3cccc4[nH]nc(N)c34)cc2)c1 [ABT-869]"
  MEASUREMENT NAME: "solubility"
  MEAS VALUE: "67 to 100 mg/mL"

---

- EXPERIMENT NOTES: Solubility of ABT-102 in various carriers (Example 14)
- Assay type: physicochemical
- PARTICULARS: oil or lipid, thermodynamic from solid; carrier Vit.E TPGS; room temperature; read-out: Solubility (S)
MEASUREMENT NAME: solubility

- MOLECULE: "CC(C)(C)c1ccc2c(c1)CC[C@H]2NC(=O)Nc1cccc2[nH]ncc12"
  MEAS VALUE: "< 200 mg/mL"

---

- EXPERIMENT NOTES: Solubility of ABT-102 in various carriers (Example 14)
- Assay type: physicochemical
- PARTICULARS: organic solvent or mixture, thermodynamic from solid; carrier VP Dimer (VPD); room temperature; read-out: Solubility (S)
MEASUREMENT NAME: solubility (mg/mL)

- COMPOUND: "CC(C)(C)c1ccc2c(c1)CC[C@H]2NC(=O)Nc1cccc2[nH]ncc12 [ABT-102]"
  MEASUREMENT NAME: "solubility"
  MEAS VALUE: 160

---

- EXPERIMENT NOTES: Solubility of ABT-102 in various carriers (Example 14)
- Assay type: physicochemical
- PARTICULARS: oil or lipid, thermodynamic from solid; carrier Phosal 50 PG; room temperature; read-out: Solubility (S)

- MOLECULE: "CC(C)(C)c1ccc2c(c1)CC[C@H]2NC(=O)Nc1cccc2[nH]ncc12"
  solubility: "50 to 100 mg/mL"

---

- EXPERIMENT NOTES: Solubility of ABT-102 in various carriers (Example 14)
- Assay type: physicochemical
- PARTICULARS: oil or lipid, thermodynamic from solid; carrier Gelucire 44/14; room temperature; read-out: Solubility (S)

- COMPOUND: "CC(C)(C)c1ccc2c(c1)CC[C@H]2NC(=O)Nc1cccc2[nH]ncc12 [ABT-102]"
  solubility: "25 to 50 mg/mL"

---

- EXPERIMENT NOTES: Screening of carriers for solubility of ABT-869 (Example 1)
- Type: physicochemical
- PARTICULARS: organic solvent or mixture, thermodynamic from solid; carrier 10% ethanol, 90% PEG 400; room temperature; read-out: Solubility (S)
MEASUREMENT NAME: solubility

- MOLECULE: "Cc1ccc(F)c(NC(=O)Nc2ccc(-c3cccc4[nH]nc(N)c34)cc2)c1"
  MEAS VALUE: "> 200 mg/mL"

---

- EXPERIMENT NOTES: Solubility of ABT-102 in various carriers (Example 14)
- Assay type: physicochemical
- PARTICULARS: oil or lipid, thermodynamic from solid; carrier Phosal 53 MCT; room temperature; read-out: Solubility (S)
MEASUREMENT NAME: solubility

- COMPOUND: "CC(C)(C)c1ccc2c(c1)CC[C@H]2NC(=O)Nc1cccc2[nH]ncc12 [ABT-102]"
  MEAS VALUE: "50 to 100 mg/mL"

---

- EXPERIMENT NOTES: Aqueous solubility of the drugs
- Type: physicochemical
- PARTICULARS: water, pH 1.1, simulated gastric fluid; read-out: solubility in water
MEASUREMENT NAME: solubility

- MOLECULE: "CC(C)(C)c1ccc2c(c1)CC[C@H]2NC(=O)Nc1cccc2[nH]ncc12"
  MEAS VALUE: "~0.102 µg/mL"

---

- EXPERIMENT NOTES: Screening of carriers for solubility of ABT-869 (Example 1)
- Type: physicochemical
- PARTICULARS: oil or lipid, thermodynamic from solid; carrier 100% Captex 355 EP; room temperature; read-out: Solubility (S)

- MOLECULE: "Cc1ccc(F)c(NC(=O)Nc2ccc(-c3cccc4[nH]nc(N)c34)cc2)c1"
  solubility: "< 50 mg/mL"

---

- EXPERIMENT NOTES: Aqueous solubility of the drugs
- Format: physicochemical
- PARTICULARS: pH 7.4, aqueous buffer
MEASUREMENT NAME: solubility (µg/mL)

- MOLECULE: "C[C@H](/C=C/[C@H](C)C(C)(C)O)[C@H]1CC[C@H]2/C(=C/C=C3C[C@@H](O)C[C@H](O)C3)CCC[C@]12C"
  MEASUREMENT NAME: "solubility"
  UNIT STRING: "µg/mL"
  MEAS VALUE: 0.0115

---

- EXPERIMENT NOTES: Screening of carriers for solubility of ABT-869 (Example 1)
- Type: physicochemical
- PARTICULARS: organic solvent or mixture, thermodynamic from solid; carrier 10% ethanol, 20% polysorbate 80, 70% PEG 400; room temperature; read-out: Solubility (S)

- COMPOUND: "Cc1ccc(F)c(NC(=O)Nc2ccc(-c3cccc4[nH]nc(N)c34)cc2)c1 [ABT-869]"
  solubility: "> 200 mg/mL"
